- target_under_test: acetylcholine muscarinic M1 receptor (CHOnfat/hM1 cells) (Homo sapiens, UniProt P11229)
- Construct: expressed in transfected cells; host or cells: CHOnfat (CHO cells; selected with Geneticin)
- Sequence (P11229 whole entry): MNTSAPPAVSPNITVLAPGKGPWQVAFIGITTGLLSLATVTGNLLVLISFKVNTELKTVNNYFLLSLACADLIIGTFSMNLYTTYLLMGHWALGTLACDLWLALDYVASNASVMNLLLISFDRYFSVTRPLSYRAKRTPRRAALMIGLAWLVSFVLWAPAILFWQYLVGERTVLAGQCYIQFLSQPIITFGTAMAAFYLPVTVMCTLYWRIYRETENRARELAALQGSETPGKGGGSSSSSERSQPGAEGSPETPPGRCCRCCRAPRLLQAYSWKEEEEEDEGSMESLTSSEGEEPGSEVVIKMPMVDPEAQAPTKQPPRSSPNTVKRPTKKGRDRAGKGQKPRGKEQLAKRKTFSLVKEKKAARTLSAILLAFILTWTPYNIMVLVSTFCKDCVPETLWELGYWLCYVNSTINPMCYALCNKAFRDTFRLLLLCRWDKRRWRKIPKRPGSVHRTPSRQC
- test_summary: FLIPR intracellular calcium assay for M1 positive allosteric modulator activity (acetylcholine EC20)
- Type: cell-based
- setup_conditions: CHOnfat/hM1 cells, 4 min preincubation, then EC20 acetylcholine (3 nM final), FLIPR Ca2+; read-out: IP Value (inflection point)
Criterion: EC50 strictly less than 300 nM. Met: Criterion met. Not met: Criterion not met.

compound	group_label
N#CC1(c2ccccn2)CCN(Cc2cc(C(=O)N[C@H]3COCC[C@@H]3O)c(=O)n3ccccc23)CC1 (racemic) [Example 8]	Criterion met
O=C(N[C@H]1CCCC[C@@H]1O)c1cc(Cc2ccc(-n3cccn3)cn2)c2ccccn2c1=O [Example 4]	Criterion not met
O=C(N[C@H]1CCCC[C@@H]1O)c1cc(Cc2ccc(Br)cn2)c2ccccn2c1=O [Example 2]	Criterion met
N#CC1(c2ccccn2)CCN(Cc2cc(C(=O)NC3CCOCC3)c(=O)n3ccccc23)CC1 [Example 1]	Criterion not met
O=C(N[C@H]1CCCC[C@@H]1O)c1cc(CN2CCN(c3ccc(C(F)F)nc3)CC2)c2ccccn2c1=O [Example 5]	Criterion met
N#Cc1ccnc(C2(C#N)CCN(Cc3cc(C(=O)N[C@H]4CCCC[C@@H]4O)c(=O)n4ccccc34)CC2)c1 [Example 22]	Criterion met
CS[C@H]1CCCC[C@@H]1NC(=O)c1cc(CN2CCC(C#N)(c3ccccn3)CC2)c2ccccn2c1=O (racemic) [Example 16]	Criterion met
N#CC1(c2ccccn2)CCN(Cc2cc(C(=O)N[C@H]3CCCC[C@@H]3Br)c(=O)n3ccccc23)CC1 (racemic) [Example 13]	Criterion not met
Cn1cc(-c2ccc(Cc3cc(C(=O)N[C@H]4CCCC[C@@H]4O)c(=O)n4ccccc34)nc2)cn1 [Example 3]	Criterion met
C[C@H]1COCC[C@@H]1NC(=O)c1cc(CN2CCC(C#N)(c3ccccn3)CC2)c2ccccn2c1=O (racemic) [Example 21]	Criterion not met
Cc1cccn2c(=O)c(C(=O)NC3CCOCC3)cc(CN3CCC(C#N)(c4ccccn4)CC3)c12 [Example 25]	Criterion not met
CS(=O)(=O)[C@H]1CCCC[C@@H]1NC(=O)c1cc(CN2CCC(C#N)(c3ccccn3)CC2)c2ccccn2c1=O (racemic) [Example 18]	Criterion not met
N#CC1(c2ccccn2)CCN(Cc2cc(C(=O)NC3CCCNC3)c(=O)n3ccccc23)CC1 (stereo not shown) [Example 19]	Criterion not met
